ED50 values, listed per item
- Test system: compound 48/80-induced lethality
- protocol: Protection of rats from compound 48/80-induced lethality
- Assay type: in vivo, rat (male, inbred Wistar strain)
- experimental_conditions: Rattus norvegicus, 4 h, read-out: compound 48/80 lethality test in rats-ED50, dose protecting 50% of animals; subcutaneous or oral, 1 h before compound 48/80 0.5 mg/kg i.v.; survival after 4 h
- Method: Protection of rats from compound 48/80-induced lethality. The protection from compound 48/80-induced lethal circulatory collapse appears to be a simple way of evaluating quantitatively the antihistaminic activity of test compounds. Male rats of an inbred Wistar strain, weighing 240-260 g were used in the experiment. After overnight starvation the rats were transferred to conditioned laboratories (temp.=21±1° C., relative humidity=65±5%). […]
Where a name gives a salt, the structure may show the parent alone.

# compound, study_system, ED50 [mg/kg]
data = [
    ("Cc1nc[nH]c1CN1CCC(Nc2nc3ccccc3n2Cc2ccc(F)cc2)CC1 [Compound 7]", "compound 48/80-induced lethality", 0.02),
    ("N=C(N)Nc1nc(CCN2CCC(Nc3nc4ccccc4n3Cc3ccc(F)cc3)CC2)cs1 [Compound 90, trihydrobromide]", "compound 48/80-induced lethality", 0.04),
    ("Fc1ccc(Cn2c(NC3CCN(CCSc4nc5ccccc5o4)CC3)nc3ccccc32)cc1 [Compound 73]", "compound 48/80-induced lethality", 0.63),
    ("Cc1ccccc1Cn1c(NC2CCN(CCNc3nccs3)CC2)nc2ccccc21 [Compound 29]", "compound 48/80-induced lethality", 0.63),
    ("Cc1coc(NCCN2CCC(Nc3nc4ccccc4n3Cc3ccc(F)cc3)CC2)n1 [Compound 84]", "compound 48/80-induced lethality", 0.16),
    ("Fc1ccc(Cn2c(NC3CCN(CCNc4nc(-c5ccncc5)cs4)CC3)nc3ccccc32)cc1 [Compound 86]", "compound 48/80-induced lethality", 0.31),
    ("Fc1ccc(Cn2c(NC3CCN(CCOc4nc5ccccc5s4)CC3)nc3ccccc32)cc1 [Compound 67]", "compound 48/80-induced lethality", 0.63),
    ("CCn1nnnc1SCCN1CCC(Nc2nc3ccccc3n2Cc2ccc(F)cc2)CC1 [Compound 74]", "compound 48/80-induced lethality", 0.08),
]
